# test-system: Protein kinase C beta type (Homo sapiens) (UniProt P05771);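 note: GSK PKIS screen, average inhibition of the PKC-beta2 splice variant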
# Sequence (P05771 2-671 limits assumed): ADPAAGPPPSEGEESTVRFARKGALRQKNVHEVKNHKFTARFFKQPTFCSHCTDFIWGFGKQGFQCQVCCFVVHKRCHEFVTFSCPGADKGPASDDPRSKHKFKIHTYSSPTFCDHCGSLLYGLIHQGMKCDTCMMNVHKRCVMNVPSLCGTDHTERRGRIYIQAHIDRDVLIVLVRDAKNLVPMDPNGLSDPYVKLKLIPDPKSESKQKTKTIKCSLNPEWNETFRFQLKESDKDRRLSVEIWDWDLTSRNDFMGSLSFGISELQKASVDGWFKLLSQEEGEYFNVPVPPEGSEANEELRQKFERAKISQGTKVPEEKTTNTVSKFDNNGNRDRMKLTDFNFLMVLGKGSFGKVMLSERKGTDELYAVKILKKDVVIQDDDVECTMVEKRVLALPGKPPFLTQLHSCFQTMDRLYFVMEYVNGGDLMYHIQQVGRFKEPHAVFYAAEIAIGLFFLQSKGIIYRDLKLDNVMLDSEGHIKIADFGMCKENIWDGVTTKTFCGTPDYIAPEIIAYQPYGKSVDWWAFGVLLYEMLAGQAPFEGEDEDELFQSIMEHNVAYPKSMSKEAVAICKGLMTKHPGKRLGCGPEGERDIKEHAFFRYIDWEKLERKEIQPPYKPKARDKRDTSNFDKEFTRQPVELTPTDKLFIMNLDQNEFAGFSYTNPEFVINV
# assay-context: at 1 µM
# Description: GSK_PKIS: PKC-beta2 (splice variant) mean inhibition at 1 uM [Nanosyn]
endpoint-name: inhibition (%)
Write the answer as a number in %, unit excluded.

Req: So what's the measured inhibition for this one? NS(=O)(=O)c1ccc(-c2ccc3c(NC(=O)C4CC4)n[nH]c3c2)cc1
Resp: 1.78

Req: Item CCn1c(-c2nonc2N)nc2c(C#CC(C)(C)O)ncc(OC[C@@H]3CCCN3)c21 has what recorded inhibition?
Resp: 37.1

Req: Query (compound): Fc1ccc(-c2ncn(C3CCNCC3)c2-c2ccnc(Oc3ccccc3)n2)cc1 ; field requested: inhibition
Resp: 5.65

Req: Entry under review: CCn1c(-c2nonc2N)nc2c(C#CCN)ncc(OCCCN)c21 . Reported inhibition?
Resp: 12

---

# Tested on: Epidermal growth factor receptor (Homo sapiens), P00533 [L861Q]
# Sequence (P00533 whole entry L861Q): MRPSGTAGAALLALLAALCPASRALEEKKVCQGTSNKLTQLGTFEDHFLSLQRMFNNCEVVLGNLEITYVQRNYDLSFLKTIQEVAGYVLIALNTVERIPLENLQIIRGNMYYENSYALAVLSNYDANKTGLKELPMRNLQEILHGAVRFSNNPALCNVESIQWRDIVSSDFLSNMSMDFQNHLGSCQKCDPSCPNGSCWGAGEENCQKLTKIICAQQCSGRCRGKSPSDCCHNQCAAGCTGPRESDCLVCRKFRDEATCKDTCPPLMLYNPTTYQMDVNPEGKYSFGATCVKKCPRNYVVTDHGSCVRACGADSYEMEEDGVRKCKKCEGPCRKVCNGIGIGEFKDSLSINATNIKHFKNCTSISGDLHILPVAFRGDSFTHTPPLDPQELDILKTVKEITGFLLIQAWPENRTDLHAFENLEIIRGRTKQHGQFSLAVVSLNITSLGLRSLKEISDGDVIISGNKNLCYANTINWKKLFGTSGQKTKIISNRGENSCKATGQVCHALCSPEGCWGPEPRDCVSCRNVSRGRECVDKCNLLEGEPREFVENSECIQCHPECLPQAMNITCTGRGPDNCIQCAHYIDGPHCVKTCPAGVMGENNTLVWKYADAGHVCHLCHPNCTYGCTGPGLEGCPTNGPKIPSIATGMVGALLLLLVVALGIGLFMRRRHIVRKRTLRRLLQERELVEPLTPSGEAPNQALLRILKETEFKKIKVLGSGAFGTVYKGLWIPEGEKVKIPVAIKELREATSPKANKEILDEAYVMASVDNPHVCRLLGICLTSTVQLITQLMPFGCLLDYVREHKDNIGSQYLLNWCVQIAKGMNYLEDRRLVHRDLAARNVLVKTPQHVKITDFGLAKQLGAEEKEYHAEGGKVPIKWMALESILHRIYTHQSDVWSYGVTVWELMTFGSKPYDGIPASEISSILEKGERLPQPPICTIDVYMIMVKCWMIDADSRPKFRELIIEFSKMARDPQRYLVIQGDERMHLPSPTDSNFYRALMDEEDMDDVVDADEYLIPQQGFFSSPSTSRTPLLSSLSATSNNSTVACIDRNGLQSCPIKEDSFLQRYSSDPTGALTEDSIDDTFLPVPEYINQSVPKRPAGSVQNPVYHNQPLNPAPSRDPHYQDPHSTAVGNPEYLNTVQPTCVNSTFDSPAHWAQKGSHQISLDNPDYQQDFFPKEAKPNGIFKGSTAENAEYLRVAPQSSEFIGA
# assay-context: at 1 µM
Please go through the items and note down their inhibition.
Give just the numeric value; % need not be written.

Req: What does the record list as inhibition for NS(=O)(=O)c1ccc(-c2ccc3c(NC(=O)C4CC4)n[nH]c3c2)cc1 ?
Resp: -1.61

Req: Find the recorded inhibition belonging to NC(=O)c1sc(-n2cnc3cc(C(F)(F)F)ccc32)cc1OCc1ccccc1Br and report it.
Resp: 1.19

Req: What does the record list as inhibition for COc1cccc(-n2ncc3c(N/N=C/c4ccncc4)ncnc32)c1 ?
Resp: 35.5

Req: Given the entry Fc1ccc(-c2ncn(C3CCNCC3)c2-c2ccnc(Oc3ccccc3)n2)cc1 , report its measured inhibition.
Resp: 6.82

Req: What does the record list as inhibition for CCn1c(-c2nonc2N)nc2c(C#CC(C)(C)O)ncc(OC[C@@H]3CCCN3)c21 ?
Resp: -1.31

Req: // query inhibition value for entry COc1cccc(COc2cc(-n3cnc4ccccc43)sc2C(N)=O)c1
Resp: -0.04

Req: State the recorded inhibition for this entry: CCn1c(-c2nonc2N)nc2c(C#CC(C)(C)O)ncc(OCC3CCNCC3)c21
Resp: 2.43

Req: Endpoint output: inhibition of CCn1c(-c2nonc2N)nc2c(C#CCN)ncc(OCCCN)c21 . Value?
Resp: 9.43

---

# test-system: Interleukin-1 receptor-associated kinase 4 (Homo sapiens);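 note: mean inhibition values, from the GSK PKIS dataset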
# assay-context: at 1 µM
Exercise: for every item that follows, state its recorded inhibition.
Number in %, nothing else.

Req: Requested field: inhibition. Item: CCn1c(-c2nonc2N)nc2c(C#CC(C)(C)O)ncc(OCC3CCNCC3)c21
Resp: 1.24

Req: Which inhibition reading was recorded for the molecule NS(=O)(=O)c1ccc(N/C=C2\C(=O)Nc3ccc4ncsc4c32)cc1 ?
Resp: 2.58

Req: Entry CCn1c(-c2nonc2N)nc2c(C#CC(C)(C)O)nc(O[C@@H](CN)c3ccccc3)cc21 : reported inhibition = ?
Resp: -0.97

Req: Please look up its inhibition: Cc1cc(-c2ccco2)cc(C)c1/C=C/c1cncc(-c2nn[nH]n2)c1
Resp: -0.12

Req: Given the entry COc1cc(C=NNc2ncnc3c2cnn3Cc2ccccc2)ccc1O , report its measured inhibition.
Resp: -1.52

Req: Using the record for CCn1c(-c2nonc2N)nc2c(C#CC(C)(C)O)ncc(OC[C@@H]3CCCN3)c21 , report its inhibition.
Resp: 0.53

Req: # lookup: inhibition of COc1cc2c(cc1Nc1nc(Nc3ccsc3C(N)=O)c3cc[nH]c3n1)N(C(=O)CN(C)C)CCC2
Resp: -1.26

Req: I have this molecule here, NS(=O)(=O)c1ccc(-c2ccc3c(NC(=O)C4CC4)n[nH]c3c2)cc1 , and I need its recorded inhibition.
Resp: 1.48

---

So I've got a bunch of molecules here, and I need their inhibition values.
# test-system: Serine/threonine-protein kinase pim-1 (Homo sapiens);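 note: reported figures are mean percent inhibition of PIM1 kinase activity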
# assay-context: at 1 µM
Kindly provide the numeric value in % only, without the unit symbol.

Req: Look up inhibition: COc1cc2c(cc1Nc1nc(Nc3ccsc3C(N)=O)c3cc[nH]c3n1)N(C(=O)CN(C)C)CCC2
Resp: 79.8

Req: Please give the measured inhibition for this molecule: NC(=O)c1sc(-n2cnc3cc(C(F)(F)F)ccc32)cc1OCc1ccccc1Br
Resp: 1.5

Req: Entry under review: Cc1cc(-c2ccco2)cc(C)c1/C=C/c1cncc(-c2nn[nH]n2)c1 . Reported inhibition?
Resp: 1.06

Req: What value of inhibition has been recorded for this entry: NS(=O)(=O)c1ccc(N/C=C2\C(=O)Nc3ccc4ncsc4c32)cc1
Resp: 4.82

Req: What inhibition value was documented for this molecule, CCn1c(-c2nonc2N)nc2c(C#CC(C)(C)O)ncc(OCC3CCNCC3)c21 ?
Resp: 17.3

Req: Fill in: inhibition of NS(=O)(=O)c1ccc(-c2ccc3c(NC(=O)C4CC4)n[nH]c3c2)cc1 is ___
Resp: 0.95

Req: Please report the recorded inhibition for CCn1c(-c2nonc2N)nc2c(C#CC(C)(C)O)nc(O[C@@H](CN)c3ccccc3)cc21 .
Resp: 35.2

Req: Quick one: inhibition for COc1cccc(COc2cc(-n3cnc4ccccc43)sc2C(N)=O)c1 ?
Resp: 0.84

Req: Fill blank: measured inhibition of the molecule COc1cc(C=NNc2ncnc3c2cnn3Cc2ccccc2)ccc1O is ____.
Resp: 1.73

---

# test-system: Serine/threonine-protein kinase Sgk2 (Homo sapiens) (UniProt Q9HBY8)
# Sequence (Q9HBY8 whole entry): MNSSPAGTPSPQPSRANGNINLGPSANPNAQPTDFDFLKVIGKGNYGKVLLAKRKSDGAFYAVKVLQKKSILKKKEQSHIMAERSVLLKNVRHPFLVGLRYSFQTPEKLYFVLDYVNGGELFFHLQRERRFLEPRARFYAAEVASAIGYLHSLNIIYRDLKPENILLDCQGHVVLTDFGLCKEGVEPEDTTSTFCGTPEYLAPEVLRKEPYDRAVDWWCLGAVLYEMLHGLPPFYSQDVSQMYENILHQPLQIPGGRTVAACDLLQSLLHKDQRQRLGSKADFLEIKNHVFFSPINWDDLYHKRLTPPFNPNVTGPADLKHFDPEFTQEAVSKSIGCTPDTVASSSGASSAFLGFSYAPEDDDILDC
# assay-context: at 1 µM
# Description: GSK_PKIS: SGK2 mean inhibition at 1 uM [Nanosyn]
Exercise: state measured inhibition for each of the compounds provided.
A number alone suffices; assume %.

Req: Fill in the blank: the reported inhibition of CCn1c(-c2nonc2N)nc2c(C#CCN)ncc(OCCCN)c21 is ____.
Resp: 8.17

Req: Item under review: Cc1cc(-c2ccco2)cc(C)c1/C=C/c1cncc(-c2nn[nH]n2)c1 . Reported inhibition?
Resp: -1.7

Req: Recorded inhibition of COc1cccc(COc2cc(-n3cnc4ccccc43)sc2C(N)=O)c1 , please.
Resp: -0.45

Req: What value of inhibition has been recorded for this entry: CCn1c(-c2nonc2N)nc2c(C#CC(C)(C)O)nc(O[C@@H](CN)c3ccccc3)cc21
Resp: 3.43

Req: I would be grateful if you could share the reported inhibition for NC(=O)c1sc(-n2cnc3cc(C(F)(F)F)ccc32)cc1OCc1ccccc1Br .
Resp: -0.08

Req: State the recorded inhibition for this entry: NS(=O)(=O)c1ccc(-c2ccc3c(NC(=O)C4CC4)n[nH]c3c2)cc1
Resp: 3.35

Req: Would you kindly share the measured inhibition for Nc1nonc1-c1nc2cnccc2n1C1CCCCC1 ?
Resp: 40.5

Req: Any idea what its inhibition is? The compound is COc1cccc(-n2ncc3c(N/N=C/c4ccncc4)ncnc32)c1
Resp: 11.9

Req: Field request: inhibition | item: Fc1ccc(-c2ncn(C3CCNCC3)c2-c2ccnc(Oc3ccccc3)n2)cc1
Resp: 2.09

Req: Need inhibition, item NS(=O)(=O)c1ccc(N/C=C2\C(=O)Nc3ccc4ncsc4c32)cc1
Resp: 18.4

Req: For COc1cc(C=NNc2ncnc3c2cnn3Cc2ccccc2)ccc1O , what is its reported inhibition?
Resp: -2.21

---

Kindly supply the reported inhibition values for the records listed here.
# test-system: Receptor-type tyrosine-protein kinase FLT3 (Homo sapiens);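 note: mean inhibition value from the GSK PKIS kinase screening set, with the assay run by Nanosyn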
# assay-context: at 0.1 µM
Report the value in % with no unit label.

Req: Consider the compound shown here: NC(=O)c1sc(-n2cnc3cc(C(F)(F)F)ccc32)cc1OCc1ccccc1Br What is its recorded inhibition?
Resp: 0.18

Req: // lookup inhibition for Cc1cc(-c2ccco2)cc(C)c1/C=C/c1cncc(-c2nn[nH]n2)c1
Resp: 1.31

Req: # input compound: COc1cc2c(cc1Nc1nc(Nc3ccsc3C(N)=O)c3cc[nH]c3n1)N(C(=O)CN(C)C)CCC2 ; wanted: its inhibition
Resp: -1.64

Req: Fill in the blank: the reported inhibition of COc1cc(C=NNc2ncnc3c2cnn3Cc2ccccc2)ccc1O is ____.
Resp: -1.99

Req: Which inhibition value is on record for CCn1c(-c2nonc2N)nc2c(C#CC(C)(C)O)ncc(OCC3CCNCC3)c21 ?
Resp: -0.18

Req: Quick one: inhibition for CCn1c(-c2nonc2N)nc2c(C#CC(C)(C)O)nc(O[C@@H](CN)c3ccccc3)cc21 ?
Resp: -2.74

Req: Quick check: inhibition of Fc1ccc(-c2ncn(C3CCNCC3)c2-c2ccnc(Oc3ccccc3)n2)cc1 ?
Resp: -0.44

---

# test-system: Dual specificity protein kinase CLK3 (Homo sapiens) (UniProt P49761);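 note: each value is the mean inhibition of CLK3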
# Sequence (P49761 whole entry, looked up): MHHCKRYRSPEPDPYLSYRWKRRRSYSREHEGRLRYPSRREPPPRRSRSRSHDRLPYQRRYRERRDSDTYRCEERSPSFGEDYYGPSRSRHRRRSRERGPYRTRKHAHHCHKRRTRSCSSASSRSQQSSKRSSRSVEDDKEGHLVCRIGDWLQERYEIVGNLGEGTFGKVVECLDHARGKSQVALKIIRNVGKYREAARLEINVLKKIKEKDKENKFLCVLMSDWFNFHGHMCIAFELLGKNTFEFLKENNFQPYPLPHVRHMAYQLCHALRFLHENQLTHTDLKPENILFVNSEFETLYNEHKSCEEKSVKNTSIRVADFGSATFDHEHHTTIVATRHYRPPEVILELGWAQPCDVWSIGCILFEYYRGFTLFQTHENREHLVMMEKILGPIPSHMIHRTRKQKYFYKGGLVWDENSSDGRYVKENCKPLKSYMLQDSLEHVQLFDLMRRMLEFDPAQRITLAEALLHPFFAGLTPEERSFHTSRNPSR
# assay-context: at 1 µM
I'd appreciate it if you could supply inhibition values for the items below.
The figure you give is taken to be in %; do not add the unit.

Req: Recall the recorded inhibition for NC(=O)c1sc(-n2cnc3cc(C(F)(F)F)ccc32)cc1OCc1ccccc1Br with Dual specificity protein kinase CLK3 (Homo sapiens) (UniProt P49761) and state it.
Resp: -0.53

Req: What value of inhibition on Dual specificity protein kinase CLK3 (Homo sapiens) (UniProt P49761) does COc1cccc(-n2ncc3c(N/N=C/c4ccncc4)ncnc32)c1 have?
Resp: 19.3

Req: Query inhibition on Dual specificity protein kinase CLK3 (Homo sapiens) (UniProt P49761) for NS(=O)(=O)c1ccc(N/C=C2\C(=O)Nc3ccc4ncsc4c32)cc1
Resp: 9.47

Req: Can you look up inhibition on Dual specificity protein kinase CLK3 (Homo sapiens) (UniProt P49761) for CCn1c(-c2nonc2N)nc2c(C#CC(C)(C)O)ncc(OCC3CCNCC3)c21 ?
Resp: -1.7

Req: What is its inhibition for Dual specificity protein kinase CLK3 (Homo sapiens) (UniProt P49761)? Entry: NS(=O)(=O)c1ccc(-c2ccc3c(NC(=O)C4CC4)n[nH]c3c2)cc1
Resp: 2.75

Req: Provide the documented inhibition with Dual specificity protein kinase CLK3 (Homo sapiens) (UniProt P49761) as the system for CCn1c(-c2nonc2N)nc2c(C#CCN)ncc(OCCCN)c21
Resp: -1.34

Req: Lab note: need inhibition for CCn1c(-c2nonc2N)nc2c(C#CC(C)(C)O)ncc(OC[C@@H]3CCCN3)c21 on Dual specificity protein kinase CLK3 (Homo sapiens) (UniProt P49761), anyone have it?
Resp: -0.53

Req: Which inhibition is reported with Dual specificity protein kinase CLK3 (Homo sapiens) (UniProt P49761) for this entry: Fc1ccc(-c2ncn(C3CCNCC3)c2-c2ccnc(Oc3ccccc3)n2)cc1 ?
Resp: -4.71
